experiment: In vitro lethality measured at 24 hours in mice following intraperitoneal administration; settings: mouse, in vivo, ip, LD50
Binarize LD50 at 24 h at 20 mg/kg; below is 1, at or above is 0.

// query Threshold test, LD50 at 24 h < 20 mg/kg: CCN1CC[C@@]2(C)c3cc(OC(=O)Nc4ccccc4)ccc3CC12 (mixture of isomers)
// result 1

// query Quick one: CCN1CC[C@@]2(C)c3cc(OC(=O)NC(C)(C)C)ccc3CC12 (mixture of isomers)
// result 0

// query Quick one: CCCNC(=O)Oc1ccc2c(c1)[C@]1(C)CCN(CC)C1C2 (mixture of isomers)
// result 1

// query Quick one: CCCCCCCNC(=O)Oc1ccc2c(c1)[C@]1(C)CCN(CCC)C1C2 (some centres not stated)
// result 0

// query Quick one: CCCCNC(=O)Oc1ccc2c(c1)[C@@H]1CCN(CC)C1C2 (mixture of isomers)
// result 0

// query Quick one: CCCCCCCNC(=O)Oc1ccc2c(c1)[C@]1(C)CCN(C)[C@@H]1N2C
// result 0

// query Quick one: CCN1CC[C@@]2(C)c3cc(OC(=O)NC)ccc3CC12 (mixture of isomers)
// result 1

---

Could you please report measured pIC50 for the items listed next?
molecular target: Acetylcholinesterase (Homo sapiens, UniProt P22303); experiment: In vitro inhibitory activity against human AchE (Acetylcholinesterase)
Sequence (P22303 whole entry): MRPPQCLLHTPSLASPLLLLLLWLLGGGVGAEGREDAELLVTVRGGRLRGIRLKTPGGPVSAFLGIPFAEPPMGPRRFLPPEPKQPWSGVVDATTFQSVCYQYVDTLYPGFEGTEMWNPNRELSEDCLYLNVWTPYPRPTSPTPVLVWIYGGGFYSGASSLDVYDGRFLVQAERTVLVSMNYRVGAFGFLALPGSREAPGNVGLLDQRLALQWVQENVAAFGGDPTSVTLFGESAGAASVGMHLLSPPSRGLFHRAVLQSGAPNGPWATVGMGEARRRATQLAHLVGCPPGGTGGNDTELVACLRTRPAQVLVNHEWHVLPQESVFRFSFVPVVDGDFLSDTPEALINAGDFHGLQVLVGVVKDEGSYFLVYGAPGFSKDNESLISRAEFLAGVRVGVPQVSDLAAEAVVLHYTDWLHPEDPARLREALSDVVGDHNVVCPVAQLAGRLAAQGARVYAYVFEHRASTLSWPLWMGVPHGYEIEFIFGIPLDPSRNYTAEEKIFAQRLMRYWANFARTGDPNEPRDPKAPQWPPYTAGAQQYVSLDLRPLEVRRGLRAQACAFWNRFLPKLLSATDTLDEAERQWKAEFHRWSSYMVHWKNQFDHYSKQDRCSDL
By convention, pIC50 is the negative base-10 log of a molar concentration.

// query Could you tell me which pIC50 is on file for CCCCCCCNC(=O)Oc1ccc2c(c1)[C@@H]1CCN(CCC)C1C2 (stereo partly specified) ?
// result 6.20

// query Quick one: CCCNC(=O)Oc1ccc2c(c1)[C@]1(C)CCN(CC)C1C2 (mixture of isomers)
// result 6.81

// query Quick one: CCCCCCNC(=O)Oc1ccc2c(c1)[C@]1(C)CCN(CC)C1C2 (single isomer, unassigned; (+))
// result 6.63

// query Quick one: CCCCNC(=O)Oc1ccc2c(c1)[C@@H]1CCN(CC)C1C2 (mixture of isomers)
// result 5.97

// query Quick one: CCN1CC[C@@]2(C)c3cc(OC(=O)Nc4ccccc4)ccc3CC12 (mixture of isomers)
// result 6.75

// query Quick one: CCCCCCCNC(=O)Oc1ccc2c(c1)[C@]1(C)CCN(C)[C@@H]1N2C
// result 6.96

---

experiment: In vitro lethality measured at 24 hours in mice following intraperitoneal administration; conditions: mouse, in vivo, ip, LD50
Binarize LD50 at 24 h at 20 mg/kg; below is true, at or above is false.

// query Threshold test, LD50 at 24 h < 20 mg/kg: CCCCCCNC(=O)Oc1ccc2c(c1)[C@]1(C)CCN(CCC)C1C2.Cc1ccc(C(=O)OC(C(=O)O)C(OC(=O)c2ccc(C)cc2)C(=O)O)cc1.O (mixture of isomers)
// result true

// query Quick one: CCCCCCCNC(=O)Oc1ccc2c(c1)[C@@H]1CCN(CC)C1C2 (mixture of isomers)
// result false

// query Quick one: CCCCCCNC(=O)Oc1ccc2c(c1)[C@]1(C)CCN(C)C1C2 (mixture of isomers)
// result true

// query Quick one: CCN1CC[C@@]2(C)c3cc(OC(=O)NCc4ccccc4)ccc3CC12 (mixture of isomers)
// result true

// query Quick one: CCCCNC(=O)Oc1ccc2c(c1)[C@]1(C)CCN(CC)C1C2 (mixture of isomers)
// result true

// query Quick one: CNC(=O)Oc1ccc2c(c1)[C@]1(C)CCN(C)[C@@H]1N2C
// result true

// query Quick one: CCCCCCNC(=O)Oc1ccc2c(c1)[C@@H]1CCN(CC)C1C2 (mixture of isomers)
// result true

// query Quick one: CCCCCCCNC(=O)Oc1ccc2c(c1)[C@]1(C)CCN(C)C1C2 (stereo partly drawn)
// result false
